// reported LogP per item
- assay: Log P by HPLC on reversed phase columns (EEC directive 79/831 Annex V.A8)
- Type: physicochemical
- condition_notes: method [a]

* CCOC(=O)C(CCSC)NC(=O)c1sc(Br)c(Cl)c1Cl (stereo not shown) [1.0203] | 4.44^[a]

compound CCCCOC(=O)C1(NC(=O)c2sc(Cl)c(Cl)c2Br)CCC1 [1.0890] , LogP observed: 5.20^[a]

Lab note: CCOC(=O)[C@@H](CC(C)C)NC(=O)c1sc(Br)c(Br)c1F [1.0156] gave LogP of 4.78^[a]

Measured LogP of NC(=S)C1(NC(=O)c2sc(Cl)c(Cl)c2Br)CC1 [1.0881] : 2.77^[a]

Briefly, LogP measured for CCOC(=O)CN(O)C(=O)c1sc(Br)c(Br)c1F [1.0542] : 2.54^[a]

* * *

- assay: Log P by HPLC on reversed phase columns (EEC directive 79/831 Annex V.A8)
- Format: physicochemical
- condition_notes: method [a]: LC-UV, acidic range, 0.1% formic acid in water and acetonitrile
measured_quantity: LogP

See these solved cases before continuing.
• CCOC(=O)c1sc(Cl)c(Br)c1C = 5.00^[a]
• O=C(NC1CCOC1=O)c1sc(Cl)c(Br)c1Cl (stereo not shown) = 2.56^[a]
• COC(=O)C(Cc1ccccc1)NC(=O)C(CC(=O)O)NC(=O)c1sc(Br)c(Cl)c1C (stereo not shown) = 3.09^[a]
• O=C(NC1CCSC1=O)c1sc(Br)c(Br)c1Cl (stereo not shown) = 3.25^[a]
• CC[C@H](C)[C@H](NC(=O)c1sc(Cl)c(Br)c1C)C(=O)OC = 4.27^[a]

Recorded result, Cc1c(C(=O)O)sc(Br)c1I , LogP: 2.92^[a]

Note to self: LogP recorded for COC(=O)[C@H](Cc1ccccc1)NC(=O)[C@H](CC(=O)O)NC(=O)c1sc(Cl)c(Br)c1C was 3.13^[a]

The reported value for CC[C@H](C)[C@H](NC(=O)c1sc(Br)c(Cl)c1C)C(=O)OC in terms of LogP is 4.25^[a]

LogP recorded for this compound, COC(=O)c1sc(Br)c(Cl)c1Br , is 4.01^[a]

// recorded LogP for Cc1c(C(=O)NC2CCOC2=O)sc(Cl)c1Br (stereo not shown) : 2.48^[a]

* * *

Listed compounds paired with reported LogP
- assay: Log P by HPLC on reversed phase columns (EEC directive 79/831 Annex V.A8)
- Type: physicochemical
- condition_notes: method [a]

- CC(C)OC(=O)C1(NC(=O)c2sc(Br)c(Br)c2Cl)CCC1 [1.0616]: 4.71^[a]
- CNC(=S)SC[C@H](NC(=O)c1sc(Cl)c(Cl)c1Br)C(=O)OC [1.0531]: 3.56^[a]
- CCOC(=O)C1(NC(=O)c2sc(Cl)c(Br)c2Cl)CCC1 [1.0182]: 4.33^[a]
- N#CCNC(=O)c1sc(Br)c(Cl)c1Br [1.0837]: 2.75^[a]
- CCOC(=O)CN(C)C(=O)c1sc(Br)c(Br)c1F [1.0167]: 3.09^[a]

Documented LogP of CCCOC(=O)C1(NC(=O)c2sc(Cl)c(Cl)c2Br)CCC1 [1.0879] : 4.74^[a]

For record CCSC(=O)C1(NC(=O)c2sc(Br)c(Br)c2I)CC1 [1.0139] the listed LogP is 3.96^[a]

Quick note, LogP for CCOC(=O)C1(NC(=O)c2sc(Cl)c(Br)c2F)CCC1 [1.0642] landed at 3.75^[a]

In plain terms, CCCOC(=O)C1(NC(=O)c2sc(C#N)c(Br)c2Cl)CC1 [1.0567] has a documented LogP of 3.18^[a]

Note to self: LogP recorded for CCOC(=O)C1(NC(=O)c2sc(Br)c(Br)c2Cl)CCC1 [1.0144] was 4.27^[a]
